Task for the reader: assign each of the following compounds its reported mean motility score.
# Tested on: Trichuris muris adult worms
# assay_text: mean motility score (Paragon pixel variance) of adult worms (arbitrary units); higher = more motile worms, i.e. less anthelmintic effect; extreme values may be limits of the assay
# test_settings: 100 µM; 24 h
Lab note: record the figure alone, no unit after it.

Which mean motility score value belongs to CC(N/C(=N/C#N)Nc1ccncc1)C(C)(C)C.O (configuration not stated) [pinacidil monohydrate] ?
2490

Which mean motility score value belongs to Cc1onc(-c2ccccc2)c1-c1ccc(S(N)(=O)=O)cc1 ?
3610

Which mean motility score value belongs to COc1cc(C(=O)NS(=O)(=O)c2ccccc2C)ccc1Cc1cn(C)c2ccc(NC(=O)OC3CCCC3)cc12 ?
0

Which mean motility score value belongs to CCC(C)n1ncn(-c2ccc(N3CCN(c4ccc(OC[C@H]5CO[C@](Cn6cncn6)(c6ccc(Cl)cc6Cl)O5)cc4)CC3)cc2)c1=O (some centres not stated) ?
1700

Which mean motility score value belongs to CC1CCc2c(N3CCC(O)CC3)c(F)cc3c(=O)c(C(=O)O)cn1c23 (configuration not stated) ?
2660

Which mean motility score value belongs to C/C=C(/C(=C/C)c1ccc(O)cc1)c1ccc(O)cc1 ?
3590

Which mean motility score value belongs to CN(C)CC/C=C1/c2ccccc2Sc2ccc(Cl)cc21 ?
5
